Target: glucagon receptor (GCGR), primary cAMP assay cell line (human, UniProt P47871 26-477)
Sequence (P47871 26-477): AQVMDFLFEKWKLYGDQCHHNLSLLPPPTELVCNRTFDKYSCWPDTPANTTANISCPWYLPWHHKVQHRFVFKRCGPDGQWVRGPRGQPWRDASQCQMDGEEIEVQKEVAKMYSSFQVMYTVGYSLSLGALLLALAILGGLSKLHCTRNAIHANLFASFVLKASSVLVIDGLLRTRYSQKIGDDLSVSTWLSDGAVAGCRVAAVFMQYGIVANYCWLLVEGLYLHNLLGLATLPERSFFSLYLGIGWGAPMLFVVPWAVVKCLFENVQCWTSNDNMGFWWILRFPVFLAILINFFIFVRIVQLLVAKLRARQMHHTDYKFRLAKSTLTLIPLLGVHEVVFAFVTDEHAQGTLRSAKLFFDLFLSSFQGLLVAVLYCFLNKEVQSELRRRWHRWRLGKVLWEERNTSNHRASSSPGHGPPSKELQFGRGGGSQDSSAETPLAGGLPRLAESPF
Experiment: cell-based or functional assay
Starred links: 1 amine or outer side, 2 acyl side, 3 side chain; linkers in the order of their positions; H or OH if unused. Non-standard residues stand in square brackets, D forms with d. Groups on a side chain read outwards from the residue. Primed or numbered codes have the meaning given here. No end group written: not given here. *: point of attachment. γGlu = O=C(O)[C@H](CCC(=O)[*:2])N[*:1]; αMeF = C[C@](N)(Cc1ccccc1)C(=O)O; αMeK = C[C@](N)(CCCCN)C(=O)O; Lauroyl = CCCCCCCCCCCC(=O)*; PEG2′ = not defined here; Aib = CC(C)(N)C(=O)O
Metric Name: cAMP Primary assay EC50, n1 (nM)

A: H[Aib]EGS[αMeF]TSDVSK([PEG2′-PEG2′-γGlu-Lauroyl])YLEGK([PEG2′-PEG2′-γGlu-Lauroyl])AA[αMeK]EFIAK([PEG2′-PEG2′-γGlu-Lauroyl])VVEGG-NH2 [SEQ ID NO: 460]
B: H[Aib]EGS[αMeF]TSDK([PEG2′-PEG2′-γGlu-Lauroyl])SSYLEGK([PEG2′-PEG2′-γGlu-Lauroyl])AA[αMeK]EFIAK([PEG2′-PEG2′-γGlu-Lauroyl])VVEGG-NH2 [SEQ ID NO: 456]
Request: Between A and B , whose recorded cAMP Primary assay EC50, n1 is greater? Write the label of whichever entry you select.
Result: A
